System: Aspergillus Niger (ATCC 16404)
Experiment: Broth micro-dilution antifungal susceptibility test (MIC)
Type: cell-based
Details: ATCC16404, 120 h, geometric means of two single experiments, five days, 35° C., Table 3
assay-metric: MIC (µg/mL)

* Cc1cc(CNC(=O)c2ccc3cccnc3c2O)no1 [Example 11] | 1
* Cc1csc(CNC(=O)c2ccc3cccnc3c2O)n1 [Example 12] | 1
* O=C(NCc1ccccn1)c1ccc2cccnc2c1O [Example 1] | 0.5
* O=C(NCc1ccc(Br)cc1)c1ccc2cccnc2c1O [Example 2] | 0.71
* O=C(Nc1ccc(-n2cncn2)cc1)c1ccc2cccnc2c1O [Example 7] | 1
* O=C(NCc1nc2ccccc2s1)c1ccc2cccnc2c1O [Example 14] | 0.5
* CN(C)c1ccc(CNC(=O)c2ccc3cccnc3c2O)cc1 [Example 4] | 0.5
* O=C(Nc1ccc2c(c1)OCCO2)c1ccc2cccnc2c1O [Example 9] | 1
* O=C(NCc1ccc(N2CCOCC2)cc1)c1ccc2cccnc2c1O [Example 10] | 0.5
